biological target: CFTR G551D mutant (Homo sapiens, UniProt P13569, G551D); test: YFP-halide influx assay for the CFTR-G551D mutation (HEK293 cells); conditions: forskolin 10.67 μM
Sequence (P13569 whole entry G551D): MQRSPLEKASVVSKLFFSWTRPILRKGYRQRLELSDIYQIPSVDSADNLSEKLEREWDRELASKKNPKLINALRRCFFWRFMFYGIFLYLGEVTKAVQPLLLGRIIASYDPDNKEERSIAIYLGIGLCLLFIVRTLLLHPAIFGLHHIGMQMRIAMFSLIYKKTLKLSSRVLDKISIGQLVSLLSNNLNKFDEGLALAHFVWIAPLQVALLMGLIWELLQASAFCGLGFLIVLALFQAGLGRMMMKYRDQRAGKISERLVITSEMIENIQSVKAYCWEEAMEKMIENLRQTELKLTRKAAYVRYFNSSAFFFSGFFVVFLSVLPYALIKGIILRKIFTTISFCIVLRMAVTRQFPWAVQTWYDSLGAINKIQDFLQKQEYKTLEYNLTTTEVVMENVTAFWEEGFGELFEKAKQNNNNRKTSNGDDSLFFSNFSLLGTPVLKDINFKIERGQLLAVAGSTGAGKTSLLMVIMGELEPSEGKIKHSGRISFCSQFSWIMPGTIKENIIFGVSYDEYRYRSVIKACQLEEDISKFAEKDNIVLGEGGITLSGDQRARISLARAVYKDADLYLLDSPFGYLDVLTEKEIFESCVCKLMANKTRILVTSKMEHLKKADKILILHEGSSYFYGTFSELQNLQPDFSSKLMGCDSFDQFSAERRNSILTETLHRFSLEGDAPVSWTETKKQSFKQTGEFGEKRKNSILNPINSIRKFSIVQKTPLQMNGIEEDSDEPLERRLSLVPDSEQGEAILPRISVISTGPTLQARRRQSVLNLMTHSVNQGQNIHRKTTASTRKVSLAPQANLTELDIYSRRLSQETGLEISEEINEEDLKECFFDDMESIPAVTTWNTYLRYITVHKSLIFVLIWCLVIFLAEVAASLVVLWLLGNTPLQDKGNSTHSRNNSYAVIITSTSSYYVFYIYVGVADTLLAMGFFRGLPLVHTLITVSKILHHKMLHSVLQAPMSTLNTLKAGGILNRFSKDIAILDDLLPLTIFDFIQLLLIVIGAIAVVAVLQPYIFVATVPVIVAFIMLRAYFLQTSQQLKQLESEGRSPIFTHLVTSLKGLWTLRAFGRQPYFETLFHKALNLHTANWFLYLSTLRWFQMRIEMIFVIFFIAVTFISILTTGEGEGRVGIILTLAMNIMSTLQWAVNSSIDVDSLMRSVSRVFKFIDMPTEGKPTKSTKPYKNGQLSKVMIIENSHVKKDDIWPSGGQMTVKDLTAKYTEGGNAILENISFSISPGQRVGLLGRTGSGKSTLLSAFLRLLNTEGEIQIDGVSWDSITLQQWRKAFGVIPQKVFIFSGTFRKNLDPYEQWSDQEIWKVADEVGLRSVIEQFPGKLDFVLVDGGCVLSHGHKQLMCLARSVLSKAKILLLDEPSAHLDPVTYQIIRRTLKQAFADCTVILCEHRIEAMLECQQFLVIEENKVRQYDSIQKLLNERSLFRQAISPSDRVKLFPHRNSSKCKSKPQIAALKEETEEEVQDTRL
PROPERTY_LABEL: EC50 (µM)

>  <MOLECULE_SMILES>
CC1CN(C(=O)c2ncc(S(=O)(=O)c3ccc(OC(F)(F)F)cc3)cc2N)C1

>  <EC50 (µM)>
1.47

$$$$

1 = Nc1cc(S(=O)(=O)c2ccc(OC(F)(F)F)cc2)cnc1C(=O)NCCC1OCCO1
2 = CCC1(F)CN(C(=O)c2ncc(S(=O)(=O)c3ccc(OC(F)(F)F)cc3)cc2N)C1
Q) // select label with min value of measured EC50 from [ 1 , 2 ] Refer to your chosen item by its label in the answer.
A) 2
(2: 0.674 µM, 1: 1.28 µM)

---

molecular target: CFTR ΔF508 mutant (Homo sapiens, UniProt P13569, DEL508-508); assay: YFP-halide influx assay for the CFTR-ΔF508 mutation (CFBE41o- cells); conditions: forskolin 10.67 μM, from (1−F/F0) vs concentration plot
Sequence (P13569 with tags, fused parts or gaps DEL508-508): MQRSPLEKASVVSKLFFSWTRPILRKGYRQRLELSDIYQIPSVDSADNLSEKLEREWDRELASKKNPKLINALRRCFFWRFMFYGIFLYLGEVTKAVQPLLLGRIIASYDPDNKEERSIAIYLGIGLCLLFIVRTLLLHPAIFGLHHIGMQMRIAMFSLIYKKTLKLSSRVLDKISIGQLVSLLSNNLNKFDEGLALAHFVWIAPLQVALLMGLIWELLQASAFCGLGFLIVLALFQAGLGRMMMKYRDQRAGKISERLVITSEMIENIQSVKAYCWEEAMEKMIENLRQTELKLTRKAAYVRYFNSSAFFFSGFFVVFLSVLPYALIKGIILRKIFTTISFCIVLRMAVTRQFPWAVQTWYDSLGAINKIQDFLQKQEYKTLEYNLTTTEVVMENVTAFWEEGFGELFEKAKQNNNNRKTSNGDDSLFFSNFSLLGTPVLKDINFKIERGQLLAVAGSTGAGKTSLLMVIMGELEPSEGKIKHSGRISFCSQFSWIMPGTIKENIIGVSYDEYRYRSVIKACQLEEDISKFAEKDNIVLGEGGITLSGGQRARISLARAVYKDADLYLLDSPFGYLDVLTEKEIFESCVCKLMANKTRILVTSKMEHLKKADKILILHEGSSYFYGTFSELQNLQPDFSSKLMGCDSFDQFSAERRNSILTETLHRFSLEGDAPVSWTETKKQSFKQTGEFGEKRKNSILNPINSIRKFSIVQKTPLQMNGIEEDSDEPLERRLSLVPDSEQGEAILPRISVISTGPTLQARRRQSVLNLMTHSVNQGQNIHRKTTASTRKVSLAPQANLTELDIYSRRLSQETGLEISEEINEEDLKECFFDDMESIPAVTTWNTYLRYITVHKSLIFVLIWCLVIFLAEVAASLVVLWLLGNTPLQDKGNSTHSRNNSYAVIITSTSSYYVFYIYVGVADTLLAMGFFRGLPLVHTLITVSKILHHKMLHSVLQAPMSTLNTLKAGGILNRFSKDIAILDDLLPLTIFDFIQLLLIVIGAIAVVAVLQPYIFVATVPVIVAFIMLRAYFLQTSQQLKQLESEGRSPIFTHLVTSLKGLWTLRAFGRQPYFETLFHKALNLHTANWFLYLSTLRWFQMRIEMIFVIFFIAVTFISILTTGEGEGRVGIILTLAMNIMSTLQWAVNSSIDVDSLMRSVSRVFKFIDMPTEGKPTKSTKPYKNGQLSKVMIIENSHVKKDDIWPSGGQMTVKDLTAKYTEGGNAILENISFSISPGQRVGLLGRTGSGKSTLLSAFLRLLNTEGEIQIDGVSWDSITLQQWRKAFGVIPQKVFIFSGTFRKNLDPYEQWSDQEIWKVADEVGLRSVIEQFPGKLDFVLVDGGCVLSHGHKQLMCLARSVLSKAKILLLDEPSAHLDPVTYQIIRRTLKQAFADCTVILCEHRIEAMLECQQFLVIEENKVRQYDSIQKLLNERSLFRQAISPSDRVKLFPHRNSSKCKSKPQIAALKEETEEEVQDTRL
pEC50: −log10 of the molar value.
PROPERTY_LABEL: pEC50

Solved cases (2 shown):
>  <COMPOUND>
CN1CC[C@@H](NC(=O)c2ncc(S(=O)(=O)c3ccc(OC(F)(F)F)cc3)cc2N)C1

>  <RECORDED_NUMBER>
6.54

$$$$
>  <COMPOUND>
CC(C)CNC(=O)c1ncc(S(=O)(=O)c2ccc(C(F)(F)F)cc2)cc1N

>  <RECORDED_NUMBER>
6.95

$$$$

A = C[C@H](O)CNC(=O)c1nc(N(C)C)c(S(=O)(=O)c2ccc(OC(F)(F)F)cc2)cc1N
B = C[C@H]1CCCN1S(=O)(=O)c1cnc(C(=O)NCC(O)C(F)(F)F)c(N)c1 (stereo partly shown)
Q) // select label with min value of measured pEC50 from [ A , B ] Refer to your chosen item by its label in the answer.
A) B
(B: 7.70, A: 8.29)

---

target: CFTR G551D mutant (Homo sapiens, UniProt P13569, G551D); construct: expressed in transfected cells; host or cells: HEK293 cells, reverse transfection with plasmids; assay: YFP-halide influx assay for the CFTR-G551D mutation (HEK293 cells); format: cell-based; conditions: forskolin 10.67 μM
PROPERTY_LABEL: % Activation (%)

>  <COMPOUND>
Nc1cc(S(=O)(=O)c2ccc(OC(F)(F)F)cc2)cnc1C(=O)Nc1cc[nH]n1

>  <UNIT_ANNOTATION>
%

>  <RECORDED_NUMBER>
44.7

$$$$

1 = Nc1cc(S(=O)(=O)c2ccc(F)cc2)cnc1C(=O)NC[C@H](O)C(F)(F)F
2 = C[C@H](O)CNC(=O)c1ncc(S(=O)(=O)N(C)C2CCC2)cc1N
Q) // select label with min value of measured % Activation from [ 1 , 2 ] Refer to your chosen item by its label in the answer.
A) 2

---

Biological target: G551D CFTR (Homo sapiens, UniProt P13569, G551D)
Test: TECC assay, FRT-CFTR G551D protocol
Conditions: FRT cells stably transfected with G551D CFTR, high expression cells, increase in Isc after forskolin
Procedure: For G551D recordings, Fischer Rat Thyroid (FRT) cells stably transfected with G551D CFTR (a low CFTR-G551D expressing cell line and a high expressing CFTR-G551D cell line from Rosalind Franklin University of Medicine and Science, North Chicago, Ill.) are plated on Transwell® supports (Costar 6.5 mm diameter, 0.4 μm pore size). The cells are grown for 8-10 days under liquid-liquid interface conditions prior to electrophysiological readings. […]
pEC50: −log10 of the molar value.
PROPERTY_LABEL: pEC50

>  <MOLECULE>
Nc1cc(S(=O)(=O)c2ccc(OC(F)(F)F)cc2)cnc1C(=O)NC[C@H](O)C(F)(F)F [Compound 26]

>  <TARGET_OF_ASSAY>
G551D CFTR (Homo sapiens, UniProt P13569, G551D)

>  <pEC50>
5.91

$$$$

A = CC(C)(O)CNC(=O)c1ncc(S(=O)(=O)c2ccc(C(F)(F)F)cc2)cc1N [Compound 11]
B = Nc1cc(S(=O)(=O)c2ccc(OC(F)(F)F)cc2)cnc1C(=O)NCCO [Compound 14]
Q) Which has the higher pEC50, A or B ? Refer to your chosen item by its label in the answer.
A) A
(A: 5.87, B: 4.93)

---

molecular target: CFTR G551D mutant (Homo sapiens, UniProt P13569, G551D); assay: YFP-halide influx assay for the CFTR-G551D mutation (HEK293 cells); details: forskolin 10.67 μM
PROPERTY_LABEL: EC50 (µM)

Solved cases (3 shown):
>  <COMPOUND>
Nc1cc(S(=O)(=O)c2ccc(OC(F)(F)F)cc2)cnc1C(=O)N1CC(N2CCOCC2)C1

>  <TARGET_OF_ASSAY>
CFTR G551D mutant (Homo sapiens, UniProt P13569, G551D)

>  <UNIT_ANNOTATION>
µM

>  <RECORDED_NUMBER>
3.12

$$$$
>  <COMPOUND>
COCCS(=O)(=O)c1cc(N)c(C(=O)NC[C@H](C)O)nc1-c1ccc(F)cc1

>  <TARGET_OF_ASSAY>
CFTR G551D mutant (Homo sapiens, UniProt P13569, G551D)

>  <UNIT_ANNOTATION>
µM

>  <RECORDED_NUMBER>
2

$$$$
>  <COMPOUND>
Nc1cc(S(=O)(=O)c2ccc(C(F)(F)F)cc2F)cnc1C(=O)N1CC(F)(F)C1

>  <TARGET_OF_ASSAY>
CFTR G551D mutant (Homo sapiens, UniProt P13569, G551D)

>  <UNIT_ANNOTATION>
µM

>  <RECORDED_NUMBER>
0.683

$$$$

1 = CC(C)(O)C1CN(C(=O)c2ncc(S(=O)(=O)c3ccc(C(F)(F)F)cc3)cc2N)C1
2 = Nc1cc(S(=O)(=O)c2ccccc2OC(F)(F)F)cnc1C(=O)N[C@@H]1COCC[C@@H]1O (racemic)
Q) Which has the higher EC50, 1 or 2 ? Refer to your chosen item by its label in the answer.
A) 2

I = Nc1cc(S(=O)(=O)c2ccc(C(F)(F)F)cc2)cnc1C(=O)N[C@H]1COCC[C@H]1O
II = Nc1cc(S(=O)(=O)c2ccc(C(F)(F)F)cc2)cnc1C(=O)NC[C@@H]1CCOC1
Q) Which has the higher EC50, I or II ? Refer to your chosen item by its label in the answer.
A) II

---

target: CFTR ΔF508 mutant (Homo sapiens, UniProt P13569, DEL508-508); construct: expressed in transfected cells; host or cells: CFBE41o- cells, adenoviral transduction; assay: YFP-halide influx assay for the CFTR-ΔF508 mutation (CFBE41o- cells); assay type: cell-based; conditions: forskolin 10.67 μM
PROPERTY_LABEL: % Activation (%)

>  <MOLECULE>
Nc1cc(S(=O)(=O)c2ccccc2OC(F)(F)F)cnc1C(=O)NCCO

>  <PROPERTY_LABEL>
% Activation

>  <UNIT_ANNOTATION>
%

>  <RECORDED_NUMBER>
121.0

$$$$
>  <MOLECULE>
Nc1cc(S(=O)(=O)c2ccc(OC(F)(F)F)cc2F)cnc1C(=O)NC[C@H]1CCOC1

>  <PROPERTY_LABEL>
% Activation

>  <UNIT_ANNOTATION>
%

>  <RECORDED_NUMBER>
102.3

$$$$
>  <MOLECULE>
Nc1cc(S(=O)(=O)c2ccc(OC(F)(F)F)cc2)cnc1C(=O)NCC1(CO)CC1

>  <PROPERTY_LABEL>
% Activation

>  <UNIT_ANNOTATION>
%

>  <RECORDED_NUMBER>
102.2

$$$$
>  <MOLECULE>
CC(C)(C)OCC(O)CNC(=O)c1ncc(S(=O)(=O)c2ccc(C(F)(F)F)cc2F)cc1N (centres unmarked)

>  <PROPERTY_LABEL>
% Activation

>  <UNIT_ANNOTATION>
%

>  <RECORDED_NUMBER>
106.0

$$$$
>  <MOLECULE>
COCC1(C)CN(C(=O)c2ncc(S(=O)(=O)c3ccc(C(F)(F)F)cc3)cc2N)C1

>  <PROPERTY_LABEL>
% Activation

>  <UNIT_ANNOTATION>
%

>  <RECORDED_NUMBER>
94.5

$$$$
>  <MOLECULE>
CC(C)(CO)CNC(=O)c1ncc(S(=O)(=O)c2ccc(OC(F)(F)F)cc2)cc1N

>  <PROPERTY_LABEL>
% Activation

>  <UNIT_ANNOTATION>
%

>  <RECORDED_NUMBER>
109.1

$$$$
>  <MOLECULE>
COCCOc1nc(C(=O)NC[C@H](C)O)c(N)cc1S(=O)(=O)c1ccc(OC(F)(F)F)cc1

>  <PROPERTY_LABEL>
% Activation

>  <UNIT_ANNOTATION>
%

>  <RECORDED_NUMBER>
109.0

$$$$
>  <MOLECULE>
COc1nc(C(=O)NC[C@H](C)O)c(N)cc1S(=O)(=O)c1ccc(OC(F)(F)F)cc1

>  <PROPERTY_LABEL>
% Activation

>  <UNIT_ANNOTATION>
%

>  <RECORDED_NUMBER>
111.0

$$$$
